Listed here are compounds together with their documented GI50.
test system: SK-MEL-5; assay: NCI tumour cell line growth inhibition, 48 h
Calls of active or inactive are those of the source. Rule as the data show it: active = GI50 up to about 1.1 µM and inactive = higher.

- COMPOUND: "COc1ccc(CN2CCC/C=C/CC(Cl)(Cl)C2=O)cc1"
  GI50: "18 µM (inactive)"
- COMPOUND: "O=C1CCC2CCOc3ccc(O)c1c32 (stereo not drawn)"
  GI50: "> 100 µM (inactive)"
- COMPOUND: "COc1ccc(C(=O)c2ccc(-n3c4ccccc4c4ccc5c(c43)C(=O)C=CC5=O)cc2)cc1"
  GI50: "4.27 µM (inactive)"
- COMPOUND: "ClC1=C(Cl)C2OC3C=CCC3OC2C(Cl)=C1Cl (stereo not drawn)"
  GI50: "29.5 µM (inactive)"
- COMPOUND: "CCN(CC)Cc1cc(/N=N\\c2c(O)ccc3c(/N=N\\c4ccc(O)c(CN(CC)CC)c4)c(O)ccc23)ccc1O"
  GI50: "2.47 µM (inactive)"
- COMPOUND: "CC(C)CC1C(=O)NCCC(NC(=O)C(Cc2ccc(OC(C)(C)C)cc2)NC(=O)OC(C)(C)C)C(=O)NC(Cc2ccccc2)C(=O)NC(Cc2ccccc2)NC1=O (stereo not drawn)"
  GI50: "31 µM (inactive)"
- COMPOUND: "CC(C)C1(Cl)CCC2C3(C)CCCC(C)(C(=O)O)C3CC(Cl)C2(Cl)C1Cl (stereo not drawn)"
  GI50: "25.8 µM (inactive)"
- COMPOUND: "Cn1c(N2CCCC2)c(C=O)c(=O)n(C)c1=O"
  GI50: "> 100 µM (inactive)"
- COMPOUND: "Nc1ccc2c(O)cc(O)nc2n1"
  GI50: "> 100 µM (inactive)"
- COMPOUND: "O=S1(=O)OCCOS(=O)(=O)C1Cc1cccc2ccccc12"
  GI50: "14.4 µM (inactive)"
- COMPOUND: "O=Cc1ccc(-c2nccc3c2[nH]c2ccccc23)o1"
  GI50: "82.2 µM (inactive)"
- COMPOUND: "CCOC(=O)C1=C(C#N)S(=O)(=O)c2c(oc(C)c2C)N1"
  GI50: "> 100 µM (inactive)"
- COMPOUND: "O=Cc1ccc2c(c1I)OCO2"
  GI50: "> 100 µM (inactive)"
- COMPOUND: "O=C1/C(=N\\O)C2CCC1C2 (stereo not drawn)"
  GI50: "> 100 µM (inactive)"
- COMPOUND: "CCOC(=O)NC(=O)c1cn(CCCOC(=O)CCCCCCCCCCC(=O)OCCCn2cc(C(=O)NC(=O)OCC)c(=O)[nH]c2=O)c(=O)[nH]c1=O"
  GI50: "> 100 µM (inactive)"
- COMPOUND: "Cc1ccccc1S(=O)(=O)OC1NS(=O)(=O)c2ccccc21 (stereo not drawn)"
  GI50: "> 100 µM (inactive)"
- COMPOUND: "CCCCN/C(=N/C#N)NCc1ccccc1"
  GI50: "> 100 µM (inactive)"
- COMPOUND: "CCOC(=O)CCCNC(=O)CCCCC(=O)N(C)C"
  GI50: "> 100 µM (inactive)"
- COMPOUND: "COc1cc(C(=O)OCCn2[nH]c(-c3ccc(Cl)cc3)nc2=S)cc(OC)c1OC"
  GI50: "48.2 µM (inactive)"
- COMPOUND: "Cc1nn2c(C(=O)N/N=C/c3ccccc3O)c(C)nc2s1"
  GI50: "60.3 µM (inactive)"
- COMPOUND: "O=C1NN=CN2C(=O)CCC12 (stereo not drawn)"
  GI50: "> 100 µM (inactive)"
- COMPOUND: "CC(=O)OC/C=C(\\C)CCC(Br)C(C)(C)Br (stereo not drawn)"
  GI50: "> 10 µM (inactive)"
- COMPOUND: "CCCCOCN/C(N)=N/C#N"
  GI50: "> 100 µM (inactive)"
